Target: ΔF508-CFTR (Homo sapiens, UniProt P13569, DEL508-508)
Construct: host or cells: CFBE41o-, doxycycline-inducible
Sequence (P13569 with tags, fused parts or gaps DEL508-508): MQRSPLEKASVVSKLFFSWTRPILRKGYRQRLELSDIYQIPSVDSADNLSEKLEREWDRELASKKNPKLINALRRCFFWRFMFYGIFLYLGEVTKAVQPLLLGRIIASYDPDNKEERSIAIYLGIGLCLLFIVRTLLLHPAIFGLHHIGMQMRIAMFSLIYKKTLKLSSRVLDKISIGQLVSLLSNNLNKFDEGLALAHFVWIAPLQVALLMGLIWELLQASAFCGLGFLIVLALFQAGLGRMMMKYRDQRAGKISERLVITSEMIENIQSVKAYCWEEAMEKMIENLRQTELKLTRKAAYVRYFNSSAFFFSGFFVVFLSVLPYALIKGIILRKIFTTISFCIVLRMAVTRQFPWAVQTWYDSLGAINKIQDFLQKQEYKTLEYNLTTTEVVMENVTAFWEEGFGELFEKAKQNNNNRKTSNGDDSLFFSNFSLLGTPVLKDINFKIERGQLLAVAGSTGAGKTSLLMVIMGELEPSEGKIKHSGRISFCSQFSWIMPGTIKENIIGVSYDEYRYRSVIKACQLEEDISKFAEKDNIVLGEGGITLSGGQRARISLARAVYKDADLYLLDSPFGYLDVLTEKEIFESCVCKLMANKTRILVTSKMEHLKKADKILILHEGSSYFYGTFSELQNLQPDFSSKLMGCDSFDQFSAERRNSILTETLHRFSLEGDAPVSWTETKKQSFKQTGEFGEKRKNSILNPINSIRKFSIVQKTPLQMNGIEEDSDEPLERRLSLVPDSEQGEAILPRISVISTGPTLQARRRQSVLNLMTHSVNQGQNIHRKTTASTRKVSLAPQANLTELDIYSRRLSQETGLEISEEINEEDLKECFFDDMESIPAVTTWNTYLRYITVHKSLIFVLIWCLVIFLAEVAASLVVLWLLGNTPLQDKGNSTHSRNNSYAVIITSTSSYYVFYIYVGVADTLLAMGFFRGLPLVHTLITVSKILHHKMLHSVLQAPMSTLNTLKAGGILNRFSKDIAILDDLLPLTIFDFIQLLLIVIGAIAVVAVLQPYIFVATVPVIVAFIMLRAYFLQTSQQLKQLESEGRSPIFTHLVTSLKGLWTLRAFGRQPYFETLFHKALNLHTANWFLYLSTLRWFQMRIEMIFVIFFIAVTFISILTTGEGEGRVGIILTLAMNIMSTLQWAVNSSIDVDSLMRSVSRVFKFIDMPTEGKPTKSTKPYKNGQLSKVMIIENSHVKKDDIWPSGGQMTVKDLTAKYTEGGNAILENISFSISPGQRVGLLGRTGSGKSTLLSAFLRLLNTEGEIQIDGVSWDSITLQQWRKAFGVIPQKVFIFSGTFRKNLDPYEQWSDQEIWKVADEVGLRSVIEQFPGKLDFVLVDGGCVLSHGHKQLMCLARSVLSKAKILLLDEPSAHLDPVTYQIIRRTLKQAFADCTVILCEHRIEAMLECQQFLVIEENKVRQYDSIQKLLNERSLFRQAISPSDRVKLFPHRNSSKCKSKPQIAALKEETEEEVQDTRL
Protocol summary: CFTR cell surface levels using HRP-tagged ΔF508-CFTR expressing CFBE cells, in the presence of a co-corrector
Format: cell-based
Condition set: HRP-tagged ΔF508-CFTR expressing CFBE cells, in the presence of 3 μM co-corrector
Param threshold (300%) applies to % Activation; output rule met when value >= threshold, rule not met when value < threshold.

As a guide, the following entries are already answered.
>>> cat("CC(C)Oc1cccc(-n2nc(C3CCC3)c3c(N4CCC(N5CCOCC5)CC4)cc(C(=O)O)nc32)n1 [compound 924]")
"rule met"
>>> cat("CO[C@H]1CC[C@H](Oc2cc(C(=O)O)nc3c2c(C2CCC2)nn3-c2ccccc2)CC1 [compound 429]")
"rule not met"
>>> cat("O=C(O)c1cc(N2CCCCCC2)c2c(C3CCC3)nn(-c3ccccc3)c2n1 [compound 473]")
"rule not met"
>>> cat("O=C(O)c1cc(N2CCC(CN3CCCOCC3)CC2)c2c(C3CCC3)nn(-c3ccccc3)c2n1 [compound 834]")
"rule met"
>>> cat("N#CC1CCN(c2ccc(-c3cc(C(=O)O)nc4c3c(OC3CCOC3)nn4-c3ccccc3)cn2)CC1 (stereo not shown) [compound 591]")
"rule not met"

Task item: Would you say N#CC1CCN(c2cc(C(=O)O)nc3c2c(C2CCC2)nn3-c2ccccc2)CC1 [compound 410] shows % Activation at minimum 300%?
Reply: rule met

Task item: Let us now turn to O=C(O)c1cc(N2CCC(N3CCCC(F)C3)CC2)c2c(C3CCC3)nn(-c3ccc(F)cc3)c2n1 (stereo not shown) [compound 872]
Reply: rule met

Task item: Let us now turn to CC(C)c1nn(-c2ccc(F)c(F)c2)c2nc(C(=O)O)cc(-c3ccc(N4CCC(C#N)CC4)nc3)c12 [compound 279]
Reply: rule met

Task item: Let us now turn to CN1CCN(c2ccc(-c3cc(C(=O)O)nc4c3c(C3CCC3)nn4C3CCCCC3)cn2)CC1 [compound 877]
Reply: rule met

Task item: Let us now turn to O=C(O)c1cc(N2CC3(CCOC3)C2)c2c(C3CCC3)nn(-c3ccccc3)c2n1 [compound 534]
Reply: rule not met

Task item: Let us now turn to CN1CCCN(CCOc2cc(C(=O)O)nc3c2c(C2CCC2)nn3-c2ccccc2)CC1 [compound 644]
Reply: rule not met

Task item: Let us now turn to O=C(O)c1cc(N2CCC(N3CCCCC3)CC2)c2c(C3CCC3)nn(-c3ccc(F)cc3)c2n1 [compound 693]
Reply: rule met

Task item: Let us now turn to COCCCN1CCN(c2cc(C(=O)O)nc3c2c(C)nn3-c2ccccc2)CC1 [compound 321]
Reply: rule not met

====

Target: ΔF508-CFTR (Homo sapiens, UniProt P13569, DEL508-508)
Construct: host or cells: CFBE41o-, doxycycline-inducible
Protocol summary: CFTR cell surface levels using HRP-tagged ΔF508-CFTR expressing CFBE cells, intrinsic corrector capacity
Assay type: cell-based
Condition set: HRP-tagged ΔF508-CFTR expressing CFBE cells; intrinsic corrector capacity (no co-corrector); 33° C., 20 hours; read-out: EC50
Text: Measuring CFTR Cell Surface Levels Using HRP-Tagged AF508-CFTR Expressing CFBE Cells The HRP-tagged AF508-CFTR cell assay measures the expression of CFTR-ΔF508 at the plasma membrane. […] When HRP-tagged AF508-CFTR is present at the plasma membrane, the HRP enzyme activity can be measured. The amount of CFTR-ΔF508 that can be rescued to the plasma membrane is correlated with the amount of functional enzyme that can be measured. […]
// reported pEC50 for each item listed
Just the number, please; pEC50 means minus log10 of the concentration in mol/L.

Some entries whose results are on file:
>>> number("CC(C)c1nn(-c2ccc(F)cc2)c2nc(C(=O)O)cc(N3CCCC(C(F)F)C3)c12 (stereo not shown) [compound 399]")
6.08
>>> number("O=C(O)c1cc(N2C[C@@H](F)C[C@H]2CO)c2c(C3CCC3)nn(-c3ccccc3)c2n1 [compound 507]")
5.66
>>> number("N#CC1CN(C2CCN(c3cc(C(=O)O)nc4c3c(C3CCC3)nn4-c3ccc(F)cc3)CC2)C1 [compound 847]")
6.27

Task item: GET /values?readout=pEC50&system=ΔF508-CFTR (Homo sapiens, UniProt P13569, DEL508-508)&item= O=C(O)c1cc(OCC2CCC(F)(F)CC2)c2c(C3CCC3)nn(-c3ccccc3)c2n1 [compound 616]
Reply: 6.93

Task item: Let us now turn to CN(C)CCOc1cc(C(=O)O)nc2c1c(C1CCC1)nn2-c1ccccc1 [compound 637]
Reply: 5.48

Task item: Let us now turn to O=C(O)c1cc(N2CCC([C@@H](F)CO)CC2)c2c(C3CCC3)nn(-c3ccccc3)c2n1 [compound 458]
Reply: 6.31

Task item: Let us now turn to CCN(CC)CCN1CCN(c2cc(C(=O)O)nc3c2c(C(C)C)nn3-c2ccc(F)cc2)CC1 [compound 800]
Reply: 5.78

Task item: Let us now turn to CC(C)CN1C[C@@H]2CN(c3cc(C(=O)O)nc4c3c(C(C)C)nn4-c3ccc(F)cc3)C[C@@H]2C1 [compound 796]
Reply: 5.78

Task item: Let us now turn to CN1C(=O)CO[C@@H]2CN(c3cc(C(=O)O)nc4c3c(C3CCC3)nn4-c3ccccc3)C[C@@H]21 [compound 503]
Reply: 5.48

Task item: Let us now turn to COCCC1CCN(c2cc(C(=O)O)nc3c2c(C2CCC2)nn3-c2ccccc2)CC1 [compound 403]
Reply: 6.39

Task item: Let us now turn to CS(=O)(=O)C1CCN(c2cc(C(=O)O)nc3c2c(C2CCC2)nn3-c2ccccc2)CC1 [compound 411]
Reply: 5.48

Task item: Let us now turn to CC(C1CCN(c2cc(C(=O)O)nc3c2c(C2CCC2)nn3-c2ccc(F)cc2)CC1)N1CCOCC1 (stereo not shown) [compound 805]
Reply: 7.14

Task item: Let us now turn to O=C(O)c1cc(N2CCC(N3CCOCC3)CC2)c2c(C3CCC3)nn(-c3cc(F)cc(F)c3)c2n1 [compound 905]
Reply: 6.44

Task item: Let us now turn to CC(C)c1nn(-c2ccc(F)cc2)c2nc(C(=O)O)cc(N3CCN(CCOCCO)CC3)c12 [compound 778]
Reply: 5.30

Task item: Let us now turn to O=C(O)c1cc(N2CCC(CN3CCC4(COC4)C3)CC2)c2c(C3CCC3)nn(-c3ccccc3)c2n1 [compound 842]
Reply: 6.20

Task item: Let us now turn to CC(=O)N1CCC(F)(COc2cc(C(=O)O)nc3c2c(C2CCC2)nn3-c2ccccc2)CC1 [compound 479]
Reply: 5.73
